From: the supplement of paper PMC11208160

assay overview: recombinant barcode read abundance after kanamycin selection (control-corrected) (log10(CPM+1)); higher = more efficient recombination; sequences stand for … in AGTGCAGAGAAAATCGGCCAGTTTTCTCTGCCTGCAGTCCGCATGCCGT…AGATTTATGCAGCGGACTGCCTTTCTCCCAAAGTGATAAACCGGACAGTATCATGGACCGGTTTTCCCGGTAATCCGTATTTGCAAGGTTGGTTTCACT; site = the 11-nt target;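 also: IS621 recombinase and bridge RNA in Escherichia coli cells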
Please enter satisfied where recombinant barcode read abundance (log10) is greater than or equal to 0.3, and not satisfied where it is lower.

Exercise: Form field: recombinant barcode read abundance (log10) at least 0.3? Entry: CTACGGACTTGGGTTCTAACCTGTTGCTG (site CTACGTACTCA)
Solution: not satisfied

Exercise: What about this sequence? GGAGAGTCTTGGGTTCTAACCTGTTGCCT (site GGAGAGTCTAG)
Solution: satisfied

Exercise: What about this sequence? TGAAGCCCTTGGGTTCTAACCTGTTGCTT (site TGAAACGCTAA)
Solution: not satisfied

Exercise: What about this sequence? CTTGACACTTGGGTTCTAACCTGTTGCCT (site CTCGACACTAG)
Solution: satisfied

Exercise: What about this sequence? TGAAACGCTTGGGTTCTAACCTGTTGCTT (site TGAAGCCCTAA)
Solution: not satisfied

Exercise: What about this sequence? CTCGGATCTTGGGTTCTAACCTGTTGCTC (site CTCGGATCTGA)
Solution: satisfied

Exercise: What about this sequence? GAGCGTCCTTGGGTTCTAACCTGTTGCCG (site CAGTGTCCTCG)
Solution: not satisfied

Exercise: What about this sequence? CCTAAGACTTGGGTTCTAACCTGTTGCCG (site CCTAAGACTCG)
Solution: not satisfied

Exercise: What about this sequence? TAGAGGACTTGGGTTCTAACCTGTTGCAG (site TAGAGGACTCT)
Solution: satisfied

Exercise: What about this sequence? CAAGTAGCTTGGGTTCTAACCTGTTGCCT (site CAAGTGGCTAG)
Solution: not satisfied
